Biological target: prostacyclin receptor (IPR) (Homo sapiens, UniProt P43119)
Construct: gene PTGIR
Sequence (P43119 1-383): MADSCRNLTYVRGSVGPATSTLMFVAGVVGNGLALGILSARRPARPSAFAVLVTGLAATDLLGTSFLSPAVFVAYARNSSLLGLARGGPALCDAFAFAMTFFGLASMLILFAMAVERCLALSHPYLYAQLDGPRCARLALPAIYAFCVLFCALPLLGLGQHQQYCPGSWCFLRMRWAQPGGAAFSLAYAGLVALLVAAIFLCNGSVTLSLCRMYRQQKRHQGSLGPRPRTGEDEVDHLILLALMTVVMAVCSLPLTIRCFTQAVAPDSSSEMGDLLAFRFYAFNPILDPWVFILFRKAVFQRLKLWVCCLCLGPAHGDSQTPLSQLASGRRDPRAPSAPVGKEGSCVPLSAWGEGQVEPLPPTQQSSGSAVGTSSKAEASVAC
Experiment: cAMP accumulation (LANCE) in human lung fibroblasts, endogenous receptor; about […] blocked by IPR antagonist RO-1138452
Assay type: cell-based
Attribute Measured: EC50 (nM)
Supply the numeric figure in nM, leaving out any unit text.

Request: EC50, test system prostacyclin receptor (IPR) (Homo sapiens, UniProt P43119), entry CCCCC[C@H](O)CC[C@@H]1[C@H]2Cc3cccc(OCC(=O)O)c3C[C@H]2C[C@H]1O
64

###

Molecular target: prostacyclin receptor (IPR) (Homo sapiens)
Construct: gene PTGIR
Assay: cAMP accumulation (LANCE) in human lung fibroblasts, endogenous receptor; partial agonist
Type: cell-based
Attribute Measured: EC50
# do not omit the unit; it follows the number

Return reported EC50; argument: CC(C)N(CCCCOCC(=O)O)c1cnc(-c2ccccc2)c(-c2ccccc2)n1
200 nM
